Test: Individual serum elimination rate and half-life (linear regression per employee)
Settings: human, serum, oral, HL (half-life), individual estimate, subject 17, 5 samples
OBSERVABLE: half-life

1. O=S(=O)(O)C(F)(F)C(F)(F)C(F)(F)C(F)(F)C(F)(F)C(F)(F)F [PFHxS, perfluorohexane sulfonic acid] ... 584 days
2. O=C(O)C(F)(F)C(F)(F)C(F)(F)C(F)(F)C(F)(F)C(F)(F)F [PFHpA, perfluoroheptanoic acid] ... 36.5 days
3. O=C(O)C(F)(F)C(F)(F)C(F)(F)C(F)(F)C(F)(F)C(F)(F)C(F)(F)F [PFOA, perfluorooctanoic acid] ... 438 days

====

Assay: Individual serum elimination rate and half-life (linear regression per employee)
Conditions: individual estimate, subject 8, 5 samples
Protocol: Serum PFAS concentrations were log-transformed. Time was calculated as the elapsed days between supply of clean bottled water and […] blood sampling. We assumed one compartment, first-order elimination kinetics. […] Method 2: For estimation of individual k, linear regression was used to derive the slope ( β ) of the logarithm of serum concentrations vs. time for each employee. […] If β was positive (i.e., PFAS concentrations tended to increase over the five samplings), the half-life was not calculated.
Respond with True for Elimination rate values of 0.007 yearly and above, False for values below.

1) O=S(=O)(O)C(F)(F)C(F)(F)C(F)(F)C(F)(F)F ... True
2) O=S(=O)(O)C(F)(F)C(F)(F)C(F)(F)C(F)(F)C(F)(F)F ... True
3) O=C(O)C(F)(F)C(F)(F)C(F)(F)C(F)(F)C(F)(F)F ... False
4) O=S(=O)(O)C(F)(C(F)(F)F)C(F)(F)C(F)(F)C(F)(F)C(F)(F)C(F)(F)C(F)(F)F (stereo not drawn) [1m-PFOS, perfluoro-1-methylheptanesulfonate] ... False
5) O=S(=O)(O)C(F)(F)C(F)(F)C(F)(F)C(F)(F)C(F)(F)C(F)(F)C(F)(F)C(F)(F)F ... False
6) O=C(O)C(F)(F)C(F)(F)C(F)(F)C(F)(F)C(F)(F)C(F)(F)F ... True
7) O=S(=O)(O)C(F)(F)C(F)(F)C(F)(F)C(F)(F)C(F)(F)C(F)(F)F ... False
8) O=S(=O)(O)C(F)(F)C(F)(F)C(F)(F)C(F)(F)C(F)(F)C(F)(F)C(F)(F)F ... False

====

Assay: PFAS levels in serum samples of airport employees (LC/MS/MS)
Conditions: 1st sampling (September 2018), count 17
OBSERVABLE: Serum PFAS level, Max

1. O=S(=O)(O)C(F)(F)C(F)(F)C(F)(F)C(F)(F)F ... 1.3
2. O=C(O)C(F)(F)C(F)(F)C(F)(F)C(F)(F)C(F)(F)C(F)(F)F ... 2.2
3. O=S(=O)(O)C(F)(C(F)(F)F)C(F)(F)C(F)(F)C(F)(F)C(F)(F)C(F)(F)C(F)(F)F (stereo not drawn) [1m-PFOS, perfluoro-1-methylheptanesulfonate] ... 4.1
4. O=C(O)C(F)(F)C(F)(F)C(F)(F)C(F)(F)C(F)(F)F ... 0.92
5. O=S(=O)(O)C(F)(F)C(F)(F)C(F)(F)C(F)(F)C(F)(F)C(F)(F)C(F)(F)C(F)(F)F ... 28
6. O=S(=O)(O)C(F)(F)C(F)(F)C(F)(F)C(F)(F)C(F)(F)C(F)(F)F ... 402
